- method_description: Cmax in CD-1 mouse at 30 mg/kg, po measured after 24 hrs by LC-MS/MS analysis
- Type: ADME, organism-based
- Design: dose 30 mg/kg, time 24 hrs, route po
- assay_setup: in vivo
experimental_endpoint: Cmax (ng/mL)

smiles_input	u	result_number
CC(C)(C)c1ccccc1OCC(=O)Nc1ccc(O)cc1	ng/mL	1620
CC(C)(C)c1cccc(C#N)c1OCC(=O)Nc1ccc(O)cc1	ng/mL	188

---

- method_description: Half life in CD-1 mouse at 30 mg/kg, po measured after 24 hrs by LC-MS/MS analysis
- Assay type: ADME, organism-based
- assay_setup: in vivo

smiles_input	u	half-life
CC(C)(C)c1ccccc1OCC(=O)Nc1ccc(O)cc1	min	178
CC(C)(C)c1cccc(C#N)c1OCC(=O)Nc1ccc(O)cc1	min	80.4

---

- method_description: AUClast in CD-1 mouse at 30 mg/kg, po measured after 24 hrs by LC-MS/MS analysis
- Type: ADME, organism-based
- Parameters: dose 30 mg/kg, time 24 hrs, route po
- assay_setup: in vivo
AUC(0-t) at 24 h reference
experimental_endpoint: AUC(0-t) at 24 h (ng·h/mL)

smiles_input	u	result_number
CC(C)(C)c1cccc(C#N)c1OCC(=O)Nc1ccc(O)cc1	ng·h/mL	388
CC(C)(C)c1ccccc1OCC(=O)Nc1ccc(O)cc1	ng·h/mL	2120

---

- method_description: Tmax in CD-1 mouse at 30 mg/kg, ip measured after 24 hrs by LC-MS/MS analysis
- Format: ADME, organism-based
- assay_setup: in vivo

smiles_input	Tmax [min]
CC(C)(C)c1ccccc1OCC(=O)Nc1ccc(O)cc1	19.8
CC(C)(C)c1cccc(C#N)c1OCC(=O)Nc1ccc(O)cc1	15
